Target: T1, cynomolgus monkey PVRIG on FlpinCHO-cyno PVRIG cells (cynomolgus monkey, UniProt A0A2K5WVV8 41-322)
T1 construct: whole, on cells
T1 sequence: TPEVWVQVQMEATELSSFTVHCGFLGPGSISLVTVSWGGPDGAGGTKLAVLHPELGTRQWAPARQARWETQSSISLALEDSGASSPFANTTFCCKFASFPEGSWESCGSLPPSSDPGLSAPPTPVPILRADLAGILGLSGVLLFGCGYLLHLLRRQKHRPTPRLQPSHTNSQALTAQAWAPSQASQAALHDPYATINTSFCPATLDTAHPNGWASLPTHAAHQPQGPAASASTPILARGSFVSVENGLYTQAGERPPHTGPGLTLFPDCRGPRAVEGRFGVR
Experiment: FACS, FlpinCHO-cyno PVRIG cells
measured.endpoint: AUC % to parental Ab
The reply must contain the numeric value and, after it, the unit.

Input line: Given the entry PVRIG-A118-H6 (Fc fusion, humanized variant of PVRIG-A118; also called A118.VH6; not shown: constant part not restated for the humanized forms; parents are VHH-hinge-CH2-CH3 of human IgG1; detected by anti-human) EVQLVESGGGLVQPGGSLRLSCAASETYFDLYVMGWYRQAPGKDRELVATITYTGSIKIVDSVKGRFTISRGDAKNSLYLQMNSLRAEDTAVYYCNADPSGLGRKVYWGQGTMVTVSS , report its measured AUC % to parental Ab.
Output line: 31.8%

Input line: Given the entry PVRIG-A50-H1b (Fc fusion, humanized variant of PVRIG-A50; also called A50.VH1b; not shown: constant part not restated for the humanized forms; parents are VHH-hinge-CH2-CH3 of human IgG1; detected by anti-human) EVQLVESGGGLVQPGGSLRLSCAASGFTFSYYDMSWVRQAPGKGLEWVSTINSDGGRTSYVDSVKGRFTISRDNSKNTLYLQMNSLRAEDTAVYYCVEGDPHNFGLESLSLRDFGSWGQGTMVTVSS , report its measured AUC % to parental Ab.
Output line: 73.1%

Input line: Given the entry PVRIG-A105 (Fc fusion, heavy chain antibody VHH-hinge-CH2-CH3, human IgG1 constant part; not shown: human IgG1 hinge-CH2-CH3) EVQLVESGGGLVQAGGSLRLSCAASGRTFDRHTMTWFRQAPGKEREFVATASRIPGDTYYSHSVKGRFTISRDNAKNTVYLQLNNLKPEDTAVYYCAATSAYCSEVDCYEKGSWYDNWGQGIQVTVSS , report its measured AUC % to parental Ab.
Output line: 100%

Input line: Given the entry PVRIG-A105-H3 (Fc fusion, humanized variant of PVRIG-A105; also called A105.VH3; not shown: constant part not restated for the humanized forms; parents are VHH-hinge-CH2-CH3 of human IgG1; detected by anti-human) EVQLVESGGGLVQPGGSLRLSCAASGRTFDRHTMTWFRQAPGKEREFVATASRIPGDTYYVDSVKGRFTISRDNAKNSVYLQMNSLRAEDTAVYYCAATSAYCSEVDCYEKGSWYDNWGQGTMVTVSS , report its measured AUC % to parental Ab.
Output line: 98.8%
